Where do these numbers come from? They come from patent US20230399319A1.

system name: NLRP3 inflammasome (Homo sapiens (Human), UniProt Q96P20)
Sequence (Q96P20 whole entry): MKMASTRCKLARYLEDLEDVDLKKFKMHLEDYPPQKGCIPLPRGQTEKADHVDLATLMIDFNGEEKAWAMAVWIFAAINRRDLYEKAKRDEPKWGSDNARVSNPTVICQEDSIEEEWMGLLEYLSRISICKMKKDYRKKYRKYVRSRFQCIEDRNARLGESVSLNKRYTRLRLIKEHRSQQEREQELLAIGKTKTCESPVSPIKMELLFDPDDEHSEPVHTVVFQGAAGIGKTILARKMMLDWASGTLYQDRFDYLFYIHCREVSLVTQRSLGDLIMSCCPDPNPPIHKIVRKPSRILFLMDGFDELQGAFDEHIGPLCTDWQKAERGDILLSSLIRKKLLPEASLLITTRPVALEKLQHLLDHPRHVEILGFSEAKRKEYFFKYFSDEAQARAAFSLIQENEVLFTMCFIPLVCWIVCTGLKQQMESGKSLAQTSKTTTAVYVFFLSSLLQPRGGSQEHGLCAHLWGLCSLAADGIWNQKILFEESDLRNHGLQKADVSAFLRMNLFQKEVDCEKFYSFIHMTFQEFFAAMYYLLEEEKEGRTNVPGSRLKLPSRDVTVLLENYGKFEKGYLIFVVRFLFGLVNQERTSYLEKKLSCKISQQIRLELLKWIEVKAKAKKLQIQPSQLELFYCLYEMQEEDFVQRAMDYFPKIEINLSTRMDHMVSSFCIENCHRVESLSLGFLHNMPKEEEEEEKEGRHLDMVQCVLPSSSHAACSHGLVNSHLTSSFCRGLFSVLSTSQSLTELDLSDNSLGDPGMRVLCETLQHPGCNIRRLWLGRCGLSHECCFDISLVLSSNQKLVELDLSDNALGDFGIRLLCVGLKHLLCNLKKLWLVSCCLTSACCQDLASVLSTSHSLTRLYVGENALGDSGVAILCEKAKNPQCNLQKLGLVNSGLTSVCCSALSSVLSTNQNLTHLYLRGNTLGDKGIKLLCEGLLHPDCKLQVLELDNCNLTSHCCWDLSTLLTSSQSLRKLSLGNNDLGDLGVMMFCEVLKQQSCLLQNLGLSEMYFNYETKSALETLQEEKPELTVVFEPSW
test summary: Evaluation of NLRP3 inflammasome inhibitory activity (inhibition of IL-1β production in THP1-Null cells, LPS/Nigericin)
run conditions: inhibition of IL-1β production in THP1-Null cells
experimental readout: IC50 (nM)
Express it in nM; write the number only.

CC(C)c1ccc(C(F)(F)F)c(Nc2nc(C(=O)NS(=O)(=O)N3CCCOCC3)co2)c1 ... 18000

Could you now consider this next compound?
[in] Item CCCC(=O)N1CCCN(S(=O)(=O)NC(=O)c2coc(Nc3cc(C(F)F)ccc3C(C)C)n2)CC1 with NLRP3 inflammasome (Homo sapiens (Human), UniProt Q96P20) - IC50?
[out] 71
